Tested on: CP268
Assay: qHTS profiling for inhibitors of Plasmodium falciparum proliferation (AID 504749); further: nearly all actives have a fitted effect of over 60% in size
Settings: P. falciparum in erythrocytes, SYBR Green DNA, 72 h; series mostly up to 28.7 µM
Inconclusive results are not listed. The source made the active and inactive calls. The call rests on the fitted dose curve; in most records, active means well fitted inhibition curve with a large enough effect; inconclusive means small, poorly fitted or top-dose-only effect; inactive means flat fitted curve, though single readings scatter.
Parameter call: string, one of active, inactive

QUERY: Which outcome was entered for the compound CC1=C(/C=C/C(C)=C/C=C/C(C)=C/C(=O)Oc2c(C)c(C)c3c(c2C)CC[C@@](C)(CCC[C@H](C)CCC[C@H](C)CCCC(C)C)O3)C(C)(C)CCC1 in this test?
RESULT: inactive

QUERY: Similarly, CC(C)(C)CC(C)(C)c1cc(Cc2cc(C(C)(C)CC(C)(C)C)cc(-n3nc4ccccc4n3)c2O)c(O)c(-n2nc3ccccc3n2)c1 ?
RESULT: inactive

QUERY: Now consider CC/C=C\C/C=C\C/C=C\C/C=C\C/C=C\C/C=C\CCC(=O)O .
RESULT: inactive

QUERY: Same again, this time with O=C(O)CCC/C=C\C[C@@H]1[C@@H](/C=C/[C@@H](O)COc2cccc(C(F)(F)F)c2)[C@H](O)C[C@@H]1O
RESULT: inactive

QUERY: And what about the compound Cc1ccc(S(=O)(=O)O)cc1C ?
RESULT: inactive

QUERY: Repeat with COc1ccc2nc(NC(=O)Nc3ccccc3)sc2c1
RESULT: inactive

QUERY: CN1CCC(OC(=O)C(Oc2ccc(Cl)cc2)Oc2ccc(Cl)cc2)CC1 ?
RESULT: inactive

QUERY: What do you get for CCCCCCCCCCCCCCCCCC(=O)OC[C@@H](O)[C@H]1OC[C@H](O)[C@H]1O ?
RESULT: inactive

QUERY: Now this one: CCCCO
RESULT: inactive

QUERY: CCSc1ccc2c(c1)N(CCCN1CCN(C)CC1)c1ccccc1S2 ?
RESULT: inactive

QUERY: Can you check Cc1ncc(C[n+]2csc(CCOP(=O)(O)OP(=O)(O)O)c2C)c(N)n1 next?
RESULT: inactive

QUERY: Queued: O=C1CCC(c2ccccc2)(C2CCN(Cc3ccccc3)CC2)C(=O)N1 (stereo not given)
RESULT: inactive

QUERY: Try CC1CC(OC(=O)C(O)c2ccccc2)CC(C)(C)C1 (stereo not given) next.
RESULT: inactive

QUERY: Now consider C=CC[C@@H]1/C=C(\C)C[C@H](C)C[C@H](OC)[C@H]2O[C@@](O)(C(=O)C(=O)N3CCCC[C@H]3C(=O)O[C@H](/C(C)=C/[C@@H]3CC[C@@H](O)[C@H](OC)C3)[C@H](C)[C@@H](O)CC1=O)[C@H](C)C[C@@H]2OC .
RESULT: active

QUERY: Query N=C(N)c1ccc(/C=C/c2ccc(C(=N)N)cc2O)cc1 next
RESULT: active

QUERY: Now consider CC(C)OC(=O)Nc1ccc2nc(-c3cscn3)[nH]c2c1 .
RESULT: inactive

QUERY: Next up: O=S(=O)(O)CC(S)CS (stereo not given)
RESULT: inactive

QUERY: Record: CCOC(=S)SSC(=S)OCC
RESULT: inactive

QUERY: Same question, Cc1cccc(C)c1NC(=O)C1CCCCN1C (stereo not given) this time
RESULT: inactive

QUERY: Input C[C@H](CCC(=O)O)[C@H]1CC[C@H]2[C@@H]3CC[C@@H]4C[C@H](O)CC[C@]4(C)[C@H]3C[C@H](O)[C@]12C
RESULT: inactive

---

Molecular target: Nuclear receptor subfamily 1 group I member 2 (Rattus norvegicus) (UniProt Q9R1A7)
Sequence (Q9R1A7 whole entry, looked up): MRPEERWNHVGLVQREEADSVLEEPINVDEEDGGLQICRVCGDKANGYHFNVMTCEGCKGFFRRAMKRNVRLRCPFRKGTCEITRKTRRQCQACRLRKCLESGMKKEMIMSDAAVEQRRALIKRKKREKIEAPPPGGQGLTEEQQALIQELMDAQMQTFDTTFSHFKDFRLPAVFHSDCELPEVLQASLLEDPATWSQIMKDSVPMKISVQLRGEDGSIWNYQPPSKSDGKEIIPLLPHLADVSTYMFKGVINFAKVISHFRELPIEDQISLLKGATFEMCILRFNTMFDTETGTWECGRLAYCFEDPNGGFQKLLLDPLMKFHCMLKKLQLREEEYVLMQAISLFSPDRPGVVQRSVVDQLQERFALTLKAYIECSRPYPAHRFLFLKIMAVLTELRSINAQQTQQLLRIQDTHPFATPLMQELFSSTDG
Assay: qHTS assay for small molecule activators of the rat pregnane X receptor (rPXR) signaling pathway (AID 651751); further: 0% is about no effect
Settings: rPXR reporter cells, luciferase (One-Glo), 24 h
Kindly state max response for each of the entries shown.
Only the number, expressed in %, is required.

QUERY: Returns the measured max response for the input compound. Input: Cc1ncc[nH]1
RESULT: 1.58

QUERY: Same read-out for CC(C)[C@@H]1CC[C@@H](C)C[C@H]1O ?
RESULT: -1.32

QUERY: // next record CO[C@@H]1[C@H](OC(=O)/C=C/C=C/C=C/C=C/C(=O)O)CC[C@]2(CO2)[C@H]1[C@@]1(C)O[C@@H]1CC=C(C)C
RESULT: -5.29

QUERY: Also check CCCCC
RESULT: -1.73

QUERY: Here is the next compound: CO
RESULT: 4.07

QUERY: Then what about the compound O=P(O)(O)O ?
RESULT: -0.433

QUERY: Then what about the compound CC/C=C\C/C=C\C/C=C\CCCCCCCC(=O)O ?
RESULT: -2.75

---

Assay: Cellular Toxicity (caspase-3) Renal Proximal Tubule (AID 667);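 further: cells exposed to compound for 16 hours at 37 °C before detection; 0% = DMSO basal and 100% = 10 µM staurosporine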
Settings: renal proximal tubule cells, primary cells freshly taken from rat, solvent-only wells 0%, staurosporine 100%; series mostly up to 91.7 µM
Calls of active or inactive are those of the source. The call rests on the fitted dose curve; in most records, active means well fitted activation curve with a large enough effect; inconclusive means small, poorly fitted or top-dose-only effect, or effect the other way; inactive means flat fitted curve, though single readings scatter.
measured.attribute: outcome

Examples with their reported outcome follow.
compound	outcome
OCC(O)CO	inactive
CC1=CCC2CC1C2(C)C (stereo unspecified)	inactive
CC1=CC(=O)NS(=O)(=O)O1	inactive
NCCN	inactive
CC(C)O	inactive
OCc1ccccc1	inactive

QUERY: Recorded outcome for Oc1ccc(/C=C/c2cc(O)cc(O)c2)cc1 , please?
RESULT: inactive

QUERY: Try this compound too: COC(=O)c1ccccc1O
RESULT: inactive

QUERY: Now this one: NC(N)=O
RESULT: inactive

QUERY: Same question for O.O.O.O.O.O.O.O=S(=O)([O-])[O-].[Co+2] please.
RESULT: inactive

QUERY: Now try C[C@H](CCC(=O)O)[C@H]1CC[C@H]2[C@@H]3[C@H](O)C[C@@H]4C[C@H](O)CC[C@]4(C)[C@H]3C[C@H](O)[C@]12C .
RESULT: inactive

QUERY: // repeat for C/C=C/C=C/C(=O)O and report
RESULT: inactive

QUERY: Param item: CO
RESULT: inactive

QUERY: Then what about the compound Cc1ncc[nH]1 ?
RESULT: inactive

QUERY: Now this one: CC/C=C\C/C=C\C/C=C\CCCCCCCC(=O)O
RESULT: inactive

QUERY: One more compound: OCl
RESULT: inactive

---

Test system: C33A
Assay: Primary qHTS to identify gynecologic anti-cancer compounds using libraries of approved drugs and bioactive compounds (AID 1345084); further: on the % scale 0 is the no-effect control and ±100 the full control effect; nearly all actives have a fitted effect of over 55% in size
Conditions: Gynecologic cancer cell panel viability, ATPlite luminescence, 48 h; series mostly up to 57.5 µM
From the text: National Center for Advancing Translational Sciences [NCATS] Assay Overview: Chemotherapeutic drug responses vary from cancer to cancer and from patient to patient. […] ATPlite is a luminescence based assay reliant on the conversion of a luciferase substrate to light in the presence of ATP. As a cytotoxic compound will suppress growth and decrease the number of cells, the concentration of ATP will decrease, and less light signal will be detected in the well. […]
Records with an inconclusive call do not appear. Activity calls are given as the source filed them. Calls follow the shape of the dose curve; as a rule, active = well fitted cell-killing curve with a large enough effect; inconclusive = small, poorly fitted or top-dose-only effect, or effect the other way; inactive = flat fitted curve, though single readings scatter.
measured.attribute: outcome

Some entries whose results are on file:
chemical.smiles	outcome
COc1ccc(C[C@H](C)NC[C@@H](O)c2ccc(O)c(NC=O)c2)cc1	inactive
CC(=O)Nc1ccc(NC(=S)NC(=O)c2ccc(C(C)(C)C)cc2)cc1	inactive
N[C@@H](Cc1cc(I)c(Oc2ccc(O)c(I)c2)c(I)c1)C(=O)O	inactive
CO[C@H]1C[C@@H]2CC[C@@H](C)[C@@](O)(O2)C(=O)C(=O)N2CCCC[C@H]2C(=O)O[C@H]([C@H](C)C[C@@H]2CC[C@@H](OC(=O)C(C)(CO)CO)[C@H](OC)C2)CC(=O)[C@H](C)/C=C(\C)[C@@H](O)[C@@H](OC)C(=O)[C@H](C)C[C@H](C)/C=C/C=C/C=C/1C	inactive
C/C(=C\C(=O)OCCCCCCCCC(=O)O)C[C@@H]1OC[C@H](C[C@@H]2O[C@H]2[C@@H](C)[C@H](C)O)[C@@H](O)[C@H]1O	inactive
CC(=O)Oc1cccc2c1C(=O)c1c(OC(C)=O)cc(C(=O)O)cc1C2=O	inactive

QUERY: Could you tell me which outcome is on file for O=C1c2ccccc2C(=O)c2c1ccc(O)c2O ?
RESULT: inactive

---

System: DIV14
Assay: qHTS profiling for inhibitors of Plasmodium falciparum proliferation (AID 504749); further: nearly all actives have a fitted effect of over 60% in size
Settings: P. falciparum in erythrocytes, SYBR Green DNA, 72 h; series mostly up to 28.7 µM
Results filed as inconclusive are left out. The source made the active and inactive calls. Calls come from the whole dose curve; as a rule, active = well fitted inhibition curve with a large enough effect; inconclusive = small, poorly fitted or top-dose-only effect; inactive = flat fitted curve, though single readings scatter.
Your reply should match one of these outcome classes. yes = active, no = inactive

QUERY: What was the test verdict on O=S(=O)(O)CC(S)CS (stereo not drawn) ?
RESULT: no

QUERY: Query OCC1(CO)COC(C(Cl)(Cl)Cl)OC1 next
RESULT: no

QUERY: Now the compound CC(=O)Nc1c(I)c(C(=O)O)c(I)c(N(C)C(C)=O)c1I
RESULT: no

QUERY: Field entry: CC(C)(Oc1ccc(C2CCCc3ccccc32)cc1)C(=O)O (stereo not drawn)
RESULT: no

QUERY: What about Nc1ncnc2c1ncn2[C@H]1CC[C@@H](CO)O1 ?
RESULT: no

QUERY: What do you have for COc1cc(S(C)=O)ccc1-c1nc2ncccc2[nH]1 (stereo not drawn) ?
RESULT: no

QUERY: Now consider O=C1CCC(=O)N1CO and answer again.
RESULT: no

QUERY: Then what about the compound COc1ccc(/C=C/C(=O)O)cc1 ?
RESULT: no

QUERY: Another compound to check: NCCN
RESULT: no

QUERY: Same again, this time with O=C(O)Cc1cc(I)c(Oc2ccc(O)c(I)c2)c(I)c1
RESULT: no

QUERY: Ok, now NC(N)=NCC1COc2ccccc2O1 (stereo not drawn)
RESULT: no

QUERY: Same question, CCCCC/C=C\C/C=C\C/C=C\CCCCC(=O)O this time
RESULT: no

QUERY: Request: COc1ccc2c(c1)OC(C)(C)C(c1ccccc1)C2c1ccc(OCCN2CCCC2)cc1 (stereo not drawn)
RESULT: yes

QUERY: Same lookup for CCCCCCCCCCCCCCCCCCCCCC(=O)Nc1ccn([C@@H]2O[C@H](CO)[C@@H](O)[C@@H]2O)c(=O)n1 , please.
RESULT: no

QUERY: Queued: Cc1ccccn1
RESULT: no

QUERY: One more compound: OB(O)O
RESULT: no

QUERY: What about O=S(=O)(O)CCCS(=O)(=O)O ?
RESULT: no

QUERY: Moving on to the next compound: CCCC(=O)O
RESULT: no

QUERY: Also, C[C@H](CCC(=O)O)[C@H]1CC[C@H]2[C@@H]3CC[C@@H]4C[C@H](O)CC[C@]4(C)[C@H]3C[C@H](O)[C@]12C please.
RESULT: no

QUERY: Please do the same for C[C@H](N)C(=O)N[C@@H](C)P(=O)(O)O as well.
RESULT: no

QUERY: Could you do the same for CCOC(C)OCC , please?
RESULT: no

QUERY: Request: FC(F)(F)C(F)(F)C(F)(F)C(F)(F)C(F)(F)C(F)(F)F
RESULT: no

QUERY: What about this compound? O=P(O)(O)CP(=O)(O)O
RESULT: no

QUERY: Same for COC(=O)c1ccccc1O
RESULT: no

QUERY: Thanks! And CN(C)CCC=C1c2ccccc2C(C)(C)c2ccccc21 ?
RESULT: yes

QUERY: Another: CC1CC(O)CC(C)(C)C1 (stereo not drawn)
RESULT: no

QUERY: What do you have for O=C(Nc1ccc(O)cc1)c1ccccc1O ?
RESULT: no

QUERY: Would you mind doing O=C(O)/C=C/c1ccccc1 as well?
RESULT: no
